Taken from paper PMC3326534.

# target.under.test: PrnB (Pseudomonas fluorescens, UniProt P95481, C175S/C21S/C60S)
# Sequence (P95481 whole entry C175S/C21S/C60S): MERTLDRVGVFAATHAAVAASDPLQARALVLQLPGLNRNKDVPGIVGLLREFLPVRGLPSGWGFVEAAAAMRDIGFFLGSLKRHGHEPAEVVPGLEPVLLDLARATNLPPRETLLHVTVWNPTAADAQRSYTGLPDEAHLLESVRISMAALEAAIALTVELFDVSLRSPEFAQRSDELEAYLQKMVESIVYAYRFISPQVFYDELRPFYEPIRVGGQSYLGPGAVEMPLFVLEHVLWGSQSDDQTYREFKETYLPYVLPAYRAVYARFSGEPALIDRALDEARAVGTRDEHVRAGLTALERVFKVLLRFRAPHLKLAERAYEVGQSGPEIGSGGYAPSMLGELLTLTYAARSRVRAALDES
# assay: spectrophotometric ligand titration
# Format: binding
measured.quantity: pKd
Please report pKd as the negative decimal logarithm of the molar concentration, giving only the number.

Supply recorded pKd for N[C@@H](Cc1c[nH]c2ccccc12)C(=O)O here.
4.22

====

# target.under.test: PrnB (Pseudomonas fluorescens, UniProt P95481, C175S/C21S/C60S)
# assay: spectrophotometric ligand titration
# Type: binding
measured.quantity: Kd (µM)
Write it as a number; the unit µM goes unstated.

Supply recorded Kd for N[C@H](Cc1c[nH]c2ccccc12)C(=O)O here.
39
